compounds and their reported AUC(0-inf)
# testSummary: Observed AUC infinity in ICR (CD-1) mouse at 1 mg/kg, iv measured upto 24 hrs
# Assay type: ADME, organism-based
# Parameters: dose 1 mg/kg, time < 24 hrs, route iv
# testContext: ICR (CD-1), in vivo
Reply numerically in ng·h/mL, unit not repeated.

Observe how each entry below is paired with its result.
structureString	AUC(0-inf), ng·h/mL
C[C@@H]1[C@H](O)[C@@H](C)/C=C/C=C/C=C/C=C/C=C/C=C/C=C/[C@H](O[C@@H]2O[C@H](C)[C@@H](O)[C@H](NC(=O)CN)[C@@H]2O)C[C@@H]2O[C@](O)(C[C@@H](O)C[C@@H](O)[C@H](O)CC[C@@H](O)C[C@@H](O)CC(=O)O[C@H]1C)C[C@H](O)[C@H]2C(=O)N1CCN(CCO)CC1	3440
CNCC(=O)N[C@@H]1[C@H](O)[C@H](O[C@H]2/C=C/C=C/C=C/C=C/C=C/C=C/C=C/[C@H](C)[C@@H](O)[C@@H](C)[C@H](C)OC(=O)C[C@H](O)C[C@H](O)CC[C@@H](O)[C@H](O)C[C@H](O)C[C@]3(O)C[C@H](O)[C@@H](C(=O)NCCN)[C@H](C2)O3)O[C@H](C)[C@H]1O	31800

Consider now this further compound.
Documented AUC(0-inf) of `CNCC(=O)N[C@@H]1[C@H](O)[C@H](O[C@H]2/C=C/C=C/C=C/C=C/C=C/C=C/C=C/[C@H](C)[C@@H](O)[C@@H](C)[C@H](C)OC(=O)C[C@H](O)C[C@H](O)CC[C@@H](O)[C@H](O)C[C@H](O)C[C@]3(O)C[C@H](O)[C@@H](C(=O)N4CCN(C(C)(C)CO)CC4)[C@H](C2)O3)O[C@H](C)[C@H]1O` : 17700

All figures here come from ChEMBL document CHEMBL5143732.
